molecular target: T1, human PD-1 (#PD1-H82E4, AcroBiosystems) (human, UniProt Q15116 25-167); assay: SPR, PD-1 on captured IgG1
T1 construct: bought
T1 sequence (Q15116 25-167 limits assumed): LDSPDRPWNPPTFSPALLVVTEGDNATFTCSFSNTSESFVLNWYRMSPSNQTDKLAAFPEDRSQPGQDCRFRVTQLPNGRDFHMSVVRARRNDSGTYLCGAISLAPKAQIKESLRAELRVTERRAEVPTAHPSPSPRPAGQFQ
observable: pKd
Friendly reminder that pKd comes from taking -log10 of the concentration in mol/L.

Any idea what its pKd is? The binder is 21A08Ap1 (antibody, human IgG1, V domains shown, human IgG1; also called anti-PD-1 antibody clone 21A08Ap1) VH: EVQLLESGGGLVQPGGSLRLSCAASGFTFSINAMTWVRQAPGKGLEWVSTISGSGFSTYYADSLKGRFTISRDNSKNTLYLQMNSLRAEDTAVYYCAKEVYGDYWGQGTLVTVSS VL: RSVLTQPPSASGTPGQRVSISCSGASSNIGSQSVFWYQQLPGTAPKLLIYSNNQRPSGVPDRFSGSKSGTSASLAISGLRSEDEADYYCAAWDDSLSIWVFGGGTKLTVL
8.90

GDY271 (antibody, human IgG1, V domains shown, human IgG1) VH: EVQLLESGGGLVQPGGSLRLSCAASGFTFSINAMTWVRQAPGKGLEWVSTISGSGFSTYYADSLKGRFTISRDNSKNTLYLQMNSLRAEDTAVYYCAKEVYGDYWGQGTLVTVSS VL: RSVLTQPPSASGTPGQRVSISCSGASSNIGSQSVYWYQQLPGTAPKLLIYSNNQRPSGVPDRFSGSKSGTSASLAISGLRSEDEADYYCAAWDDSLSIWVFGGGTKLTVL ?
8.45

GZZ692 (antibody, human IgG1, V domains shown, human IgG1) VH: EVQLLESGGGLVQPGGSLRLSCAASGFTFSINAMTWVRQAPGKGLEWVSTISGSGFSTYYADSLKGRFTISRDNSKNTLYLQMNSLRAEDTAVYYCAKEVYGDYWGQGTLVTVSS VL: RSVLTQPPSASGTPGQRVSISCSGASSNIGSQSVFWYQQLPGTAPKLLGYSNNQRPSGVPDRFSGSKSGTSASLAISGLRSEDEADYYCAAWDDSLSIWVFGGGTKLTVL ?
8.85
